molecular target: EP2 (Homo sapiens (Human), UniProt P43116); experiment: hEP2 cAMP assay (SF295 glioblastoma cells, HTRF cAMP); conditions: antagonistic activity
Sequence (P43116 whole entry): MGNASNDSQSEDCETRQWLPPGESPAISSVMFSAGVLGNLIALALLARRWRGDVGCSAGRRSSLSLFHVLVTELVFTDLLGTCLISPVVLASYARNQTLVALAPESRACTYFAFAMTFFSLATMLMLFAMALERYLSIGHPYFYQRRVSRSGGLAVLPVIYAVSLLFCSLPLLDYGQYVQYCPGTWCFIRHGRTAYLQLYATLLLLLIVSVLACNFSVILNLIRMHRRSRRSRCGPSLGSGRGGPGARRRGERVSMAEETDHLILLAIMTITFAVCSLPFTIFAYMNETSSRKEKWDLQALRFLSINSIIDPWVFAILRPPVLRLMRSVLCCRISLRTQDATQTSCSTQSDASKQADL
MEASUREMENT NAME: pIC50
One number for each entry, as −log10 of the molar value.

CCOc1cc(-c2cc(NCCc3ccc4ccccc4c3C)ncn2)sc1C(=O)NS(C)(=O)=O: 7.34
CSc1cc(-c2cc(NCCc3ccc4c(c3)CCCO4)ncn2)ccc1C(=O)O: 6.55
CCOc1cc(-c2cc(NCCc3cc4cccnc4cc3C)ncn2)sc1C(=O)O: 6.55

I have 4 molecules here; please give me pIC50 for each one.
1. CCOc1cc(-c2cc(NCCc3ccc4ccccc4c3C)ncn2)ccc1OCC(=O)O
2. CCOc1cc(-c2cc(NCCc3cc(Cl)c4c(c3)OCCO4)ncn2)ccc1C(=O)O
3. CCOc1cc(-c2cc(NCCc3c(OC)cc4ccccc4c3F)ncn2)sc1C(=O)O
4. C=Cc1c(CCNc2cc(-c3cc(OCC)c(C(=O)O)s3)ncn2)ccc2ccccc12

6.53
6.05
7.59
6.32

----------
biological target: EP4 (Homo sapiens (Human), UniProt P35408); assay: hEP4 cAMP assay (BT549 breast cancer cells, HTRF cAMP); format: cell-based; conditions: antagonistic activity, PGE2 6 nM
Sequence (P35408 whole entry): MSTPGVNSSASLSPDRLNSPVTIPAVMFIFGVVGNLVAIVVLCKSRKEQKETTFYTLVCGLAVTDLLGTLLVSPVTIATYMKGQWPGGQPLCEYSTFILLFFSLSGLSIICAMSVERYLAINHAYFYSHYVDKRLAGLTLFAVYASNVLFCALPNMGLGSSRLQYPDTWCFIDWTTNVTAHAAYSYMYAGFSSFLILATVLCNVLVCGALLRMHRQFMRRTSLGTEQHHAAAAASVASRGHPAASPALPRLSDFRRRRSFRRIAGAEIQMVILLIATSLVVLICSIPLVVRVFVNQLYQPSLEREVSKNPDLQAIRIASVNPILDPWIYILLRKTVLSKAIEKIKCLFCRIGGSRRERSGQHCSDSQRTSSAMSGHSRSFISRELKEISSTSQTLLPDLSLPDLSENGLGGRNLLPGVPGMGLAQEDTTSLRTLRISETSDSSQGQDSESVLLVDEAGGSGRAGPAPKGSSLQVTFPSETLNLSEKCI
MEASUREMENT NAME: pIC50
Give bare numbers, as −log10 of the molar value.

Here are 3 compounds together with their reported answers.
Cc1c(CCNc2cc(-c3ccc(C(=O)O)c(OC4CCC4)c3)ncn2)ccc2sccc12 [Ex 268]: 6.47
CSc1cc(-c2cc(NCCc3cc4c(cc3C#N)OCCO4)ncn2)ccc1C(=O)O [Ex 97]: 7.20
CCOc1cc(-c2cc(NCCc3cc4c(cc3OC)OCCO4)ncn2)ccc1CC(=O)O [Ex 175]: 6.73

I have 6 compounds here; please give me pIC50 for each one.
1. Cc1c(CCNc2cc(-c3ccc(C(=O)O)c(OC4CCC4)c3)ncn2)ccc2ccccc12 [Ex 168]
2. CCOc1cc(-c2cc(NCCc3cc(F)c4ncccc4c3F)ncn2)sc1C(=O)O [Ex 86]
3. CCOc1cc(-c2cc(NCCc3ccc4c(c3)COC4)ncn2)sc1C(=O)O [Ex 164]
4. CCOc1cc(-c2cc(NCCc3cc4ccccc4cc3C)ncn2)ccc1C(=O)O [Ex 240]
5. Cc1c(CCNc2cc(-c3ccc(-c4nc(O)no4)cc3)ncn2)ccc2ccccc12 [Ex 302]
6. CCOc1cc(-c2cc(NCCc3ccc4sccc4c3)ncn2)ccc1OC(C)(C)C(=O)O [Ex 321]

[6.77, 7.31, 6.79, 6.46, 6.28, 6.11]

----------
molecular target: PTGER2 (EP2) (Homo sapiens (Human), UniProt P43116); assay: hEP2 b-arrestin assay (PathHunter HEK 293 PTGER2 b-arrestin cells); conditions: antagonistic activity, beta-arrestin assay; read-out: hEP2 b-arr IC50
TRUE if IC50 is below 0.07 µM. FALSE if not; exact matches included in FALSE.

Use the examples below as a reference point.
COc1cc(-c2cc(NCCc3ccc4c(c3C)OCCO4)ncn2)ccc1CC(=O)O: FALSE
CCOc1cc(-c2cc(NCCc3ccc4ccccc4c3C)ncn2)sc1C(=O)O: TRUE

Dear reviewer, please state whether `CCOc1cc(-c2cc(NCCc3cc4c(cc3F)OCCN4C)ncn2)sc1C(=O)O` has IC50 strictly beneath 0.07 µM.
TRUE

Dear reviewer, please state whether `CCOc1cc2c(cc1CCNc1cc(-c3ccc(CC(=O)O)c(OC(C)C)c3)ncn1)OCCO2` has IC50 strictly beneath 0.07 µM.
TRUE

Dear reviewer, please state whether `CC(C)Cc1cc(-c2cc(NCCc3cc(F)c4sccc4c3)ncn2)ccc1C(=O)O` has IC50 strictly beneath 0.07 µM.
FALSE

Dear reviewer, please state whether `O=C(O)c1ccc(-c2cc(NCCc3cc(F)c4sccc4c3)ncn2)cc1OC1CCC1` has IC50 strictly beneath 0.07 µM.
FALSE

Dear reviewer, please state whether CCCc1cc(-c2cc(NCCc3ccc4sccc4c3)ncn2)ccc1C(C)C(=O)O (racemic) has IC50 strictly beneath 0.07 µM.
FALSE

Dear reviewer, please state whether `CSc1cc(-c2cc(NCCc3ccc4cccc(F)c4c3)ncn2)ccc1C(=O)O` has IC50 strictly beneath 0.07 µM.
FALSE

----------
target: PTGER2 (EP2) (Homo sapiens (Human)); test: hEP2 b-arrestin assay (PathHunter HEK 293 PTGER2 b-arrestin cells); details: antagonistic activity, beta-arrestin assay; read-out: hEP2 b-arr IC50
MEASUREMENT NAME: IC50 (nM)
Answers are plain numbers, in nM.

Here are 3 compounds together with their reported answers.
CCOc1nc(-c2cc(NCCc3ccc4ccccc4c3C)ncn2)sc1-c1noc(=O)[nH]1 [Example 352]: 42
C#Cc1cc2ccccc2cc1CCNc1cc(-c2ccc(C(=O)O)c(OCC)c2)ncn1 [Ex 105]: 40
CCCc1cc(-c2cc(NCCc3c(OC)cc4c(c3C)OCCO4)ncn2)ccc1CC(=O)O [Example 397]: 7

// next entry
IC50 reading for COc1cc2ccccc2c(C)c1CCNc1cc(-c2ccc(CC(=O)O)c(OC(F)(F)F)c2)ncn1 [Example 500] : 88

----------
Can you tell me log10 IC50 for the items I'm about to list?
Biological target: EP2 (Homo sapiens (Human), UniProt P43116)
Assay: hEP2 cAMP assay (SF295 glioblastoma cells, HTRF cAMP)
Type: cell-based
Settings: antagonistic activity
Excerpt: Human tumor cell lines expressing endogenously either EP4 or EP2 are used and cAMP accumulation in cells upon PGE2 stimulation is monitored. […] As a detection method for cAMP the HTRF (homogeneous time resolved fluorescence) Cisbio kit (HTRF cAMP dynamic 2 kit 20'000 tests Cisbio Cat. #62AM4PEC) was used, which is based on a competitive immunoassay using a Cryptate-labeled anti-cAMP antibody and d2-labeled cAMP. […]
The base-10 logarithm of IC50, taken with IC50 in nM, is what appears here.

I have 8 molecules here; please give me log10 IC50 for each one.
1. CCOc1cc2ccccc2cc1CCNc1cc(-c2ccc(OCC(=O)O)c(OCC)c2)ncn1
2. C#Cc1c(CCNc2cc(-c3cc(OCC)c(C(=O)O)s3)ncn2)ccc2ccccc12
3. CCOc1cc(-c2cc(NCCc3ccc4ccccc4c3C)ncn2)ccc1C(=O)O
4. CCOc1cc(-c2cc(NCCc3ccc4scc(C#N)c4c3)ncn2)sc1C(=O)O
5. CCOc1cc(-c2cc(NCCc3cc4c(cc3OC(F)F)OCO4)ncn2)sc1C(=O)O
6. CCOc1cc(-c2cc(NCCc3ccc4c(c3)CCS4)ncn2)sc1C(=O)O
7. CCOc1cc(-c2cc(NCCc3cc4c(cc3C)OCCO4)ncn2)sc1C(=O)O
8. Cc1c(CCNc2cc(-c3ccc(C(=O)O)c(OC4CCC4)c3)ncn2)ccc2ccccc12

1: 1.97; 2: 2.23; 3: 2.14; 4: 1.28; 5: 1.61; 6: 1.45; 7: 1.15; 8: 2.33

I have 5 molecules here; please give me log10 IC50 for each one.
1. CCOc1cc(-c2cc(NCCc3cc4ccccc4cc3OC(F)F)ncn2)sc1C(=O)O
2. CCOc1cc(-c2cc(NCCc3cc4c(cc3C#N)OCO4)ncn2)sc1C(=O)O
3. CCSc1cc(-c2cc(NCCc3cc4c(cc3OC)OCCO4)ncn2)ccc1C(=O)O
4. CCCc1cc(-c2cc(NCCc3ccc4ccccc4c3C)ncn2)ccc1C(=O)O
5. CCOc1cc(-c2cc(NCCc3cc4c(cc3C)OCCO4)ncn2)ccc1OCC(=O)O

2.27
1.45
1.79
1.87
2.21

I have 4 molecules here; please give me log10 IC50 for each one.
1. O=C(O)c1ccc(-c2cc(NCCc3ccc4c(c3)OCCC4)ncn2)cc1OC1CCC1
2. CCOc1cc(-c2cc(NCCc3ccc4c(c3)OCO4)ncn2)sc1C(=O)O
3. CCOc1cc(-c2cc(NCCc3cc4c(cc3OC)OCCO4)ncn2)ccc1C(=O)O
4. Fc1cc2ncccc2c(F)c1CCNc1cc(-c2ccc3ncccc3c2)ncn1

4.06
1.69
1.93
2.77

I have 5 molecules here; please give me log10 IC50 for each one.
1. CCOc1cc(-c2cc(NCCc3cc4c(cc3OC)OCO4)ncn2)ccc1CC(=O)O
2. CCOc1cc(-c2cc(NCCc3cc4c(cc3C#N)OCCO4)ncn2)ccc1C(=O)O
3. CCOc1cc(-c2cc(NCCc3cc4ccsc4cc3OC)ncn2)sc1-c1noc(=O)[nH]1
4. CCOc1cc(-c2cc(NCCc3cc4ccccc4cc3OC)ncn2)cc(OC)c1C(=O)O
5. CCOc1cc(-c2cc(NCCc3cc4c(cc3OC)CCCC4)ncn2)ccc1OCC(=O)O

1. 2.40
2. 2.84
3. 1.30
4. 2.47
5. 2.90

----------
target: PTGER2 (EP2) (Homo sapiens (Human), UniProt P43116); experiment: hEP2 b-arrestin assay (PathHunter HEK 293 PTGER2 b-arrestin cells); settings: antagonistic activity, beta-arrestin assay; read-out: hEP2 b-arr IC50
Can you tell me IC50 for the items I'm about to list?
Answers are plain numbers, in nM.

I have 8 compounds here; please give me IC50 for each one.
1. CCOc1cc(-c2cc(NCCc3cc4ccsc4cc3C)ncn2)cc(F)c1CC(=O)O [Example 469]
2. COc1cc(-c2cc(NCCc3ccc4sccc4c3F)ncn2)ccc1CC(=O)O [Example 382]
3. CCSc1cc(-c2cc(NCCc3cc4ccoc4cc3F)ncn2)ccc1C(=O)O [Ex 275]
4. CCOc1cc(-c2cc(NCCc3cc4ccsc4cc3OC)ncn2)ccc1OCC(=O)O [Ex 80]
5. CSc1cc(-c2cc(NCCc3cc4c(cc3OC(F)F)OCCO4)ncn2)ccc1C(=O)O [Example 495]
6. CCCc1cc(-c2cc(NCCc3cc4c(cc3OCC)OCCO4)ncn2)ccc1C(C)C(=O)O (racemic) [Example 487]
7. COc1cc(-c2cc(NCCc3cc(F)c4sccc4c3)ncn2)ccc1OCCC(=O)O [Example 438]
8. COc1cc2c(cc1CCNc1cc(-c3ccc(CC(=O)O)c(OC)c3)ncn1)OCCO2 [Example 383]

1. 502
2. 160
3. 67
4. 17
5. 77
6. 59
7. 519
8. 177

I have 7 compounds here; please give me IC50 for each one.
1. COc1cc2ccccc2c(F)c1CCNc1cc(-c2ccc(C(=O)O)c(OC3CCC3)c2)ncn1 [Ex 25]
2. COc1cc2c(cc1CCNc1cc(-c3ccc(CC(=O)O)c(OC(C)C)c3)ncn1)OCCO2 [Example 523]
3. COc1cc2ccccc2c(C)c1CCNc1cc(-c2ccc(C(=O)O)c(OC3CC3)c2)ncn1 [Example 448]
4. CCOc1cc(-c2cc(NCCc3cc4ccsc4cc3OC)ncn2)cc(F)c1CC(=O)O [Example 371]
5. COc1cc2sccc2cc1CCNc1cc(-c2ccc(CC(=O)O)c(SC)c2)ncn1 [Ex 224]
6. O=c1nc(-c2ccc(-c3cc(NCCc4cc(F)c5sccc5c4)ncn3)cc2)o[nH]1 [Example 543]
7. Cc1c(CCNc2cc(-c3cc4c(C(=O)O)cccc4[nH]3)ncn2)ccc2ccccc12 [Ex 127]

96
227
15
86
84
612
181

I have 6 compounds here; please give me IC50 for each one.
1. CCOc1cc(-c2cc(NCCc3cc4ccsc4cc3C#N)ncn2)ccc1C(=O)O [Ex 128]
2. CSc1cc(-c2cc(NCCc3c(C#N)cc4ccccc4c3C)ncn2)ccc1C(=O)O [Ex 52]
3. C#Cc1cc2ccccc2cc1CCNc1cc(-c2ccc(OCC(=O)O)c(OCC)c2)ncn1 [Ex 103]
4. COc1cc2c(cc1CCNc1cc(-c3ccc(C(=O)O)c(SC)c3)ncn1)OCCO2 [Ex 116]
5. CCOc1cc2c(cc1CCNc1cc(-c3cc(F)c(CC(=O)O)c(OCC)c3)ncn1)OCCO2 [Example 403]
6. O=C(O)c1ccc(-c2cc(NCCc3ccc4sccc4c3)ncn2)cc1OC1CCC1 [Ex 125]

1: 151; 2: 318; 3: 51; 4: 76; 5: 57; 6: 116

I have 6 compounds here; please give me IC50 for each one.
1. CCOc1cc(-c2cc(NCCc3ccc4sncc4c3)ncn2)sc1C(=O)O [Ex 135]
2. CCOc1cc(-c2cc(NCCc3ccc4[nH]ccc4c3)ncn2)sc1C(=O)O [Ex 32]
3. CCOc1cc(-c2cc(NCCc3cc4ccoc4cc3F)ncn2)sc1C(=O)O [Ex 13]
4. CCOc1cc2c(cc1CCNc1cc(-c3ccc(C(=O)O)c(CC)c3)ncn1)OCCO2 [Example 516]
5. CCOc1cc(-c2cc(NCCc3c(OC)cc4occc4c3C)ncn2)ccc1OCC(=O)O [Ex 102]
6. CCOc1cc(-c2cc(NCCc3cc4ccsc4cc3C)ncn2)ccc1CC(=O)O [Ex 290]

1: 198; 2: 199; 3: 12; 4: 23; 5: 9; 6: 163

I have 3 compounds here; please give me IC50 for each one.
1. CCOc1cc(-c2cc(NCCc3cc4c(cc3OC)OCCO4)ncn2)ccc1C(=O)O [Ex 286]
2. CCCc1cc(-c2cc(NCCc3cc4ccsc4cc3OC)ncn2)ccc1CC(=O)O [Example 385]
3. COc1cc(-c2cc(NCCc3ccc4sccc4c3F)ncn2)ccc1OCCC(=O)O [Example 437]

198
30
104

I have 5 compounds here; please give me IC50 for each one.
1. CCOc1cc(-c2cc(NCCc3ccc4c(c3)COC4)ncn2)sc1C(=O)O [Ex 164]
2. CCOc1cc(-c2cc(NCCc3ccc4ccccc4c3C)ncn2)ccc1-c1noc(O)n1 [Ex 220]
3. O=C(O)c1ccc(-c2cc(NCCc3cc(F)c4sccc4c3)ncn2)cc1 [Example 496]
4. CCOc1cc(-c2cc(NCCc3ccc4sccc4c3)nc(C)n2)sc1C(=O)O [Ex 96]
5. CCOc1cc(-c2cc(NCCc3c(OC)cc4c(c3F)OCCO4)ncn2)ccc1C(=O)O [Example 435]

1: 269; 2: 113; 3: 588; 4: 148; 5: 46
